Provenance of the data: ChEMBL document CHEMBL1944509

Entries annotated with measured concentration at 8 h
assay: Plasma concentration in ICR mouse at 10 mg/kg, po after 8 hrs by HPLC/MS/MS analysis; type: ADME, organism-based; parameters: dose 10 mg/kg, route oral
Please reply with the bare figure in ng/mL and do not write the unit itself.

Endpoint output: concentration at 8 h of `CC(C)Cc1ccc([C@H](C)C(=O)O)cc1` . Value?
336

Further cases:
Endpoint output: concentration at 8 h of `CC(C)Cc1ccc([C@H](CF)C(=O)O)cc1` . Value?
42.4

###

experiment: Plasma concentration in ICR mouse at 10 mg/kg, po after 4 hrs by HPLC/MS/MS analysis; type: ADME, organism-based; design: dose 10 mg/kg, route oral
test readout: concentration at 4 h (ng/mL)
Please reply with the bare figure in ng/mL and do not write the unit itself.

Endpoint output: concentration at 4 h of `CC(C)Cc1ccc([C@H](C)C(=O)O)cc1` . Value?
5260

Continue with the next molecule.
Endpoint output: concentration at 4 h of `CC(C)Cc1ccc([C@H](CF)C(=O)O)cc1` . Value?
792

###

test: AUC (0 to t) in ICR mouse at 10 mg/kg, po; format: ADME, organism-based; set-up: dose 10 mg/kg, route oral; details: plasma
Entries annotated with measured AUC(0-t)
Please reply with the bare figure in ng·h/mL and do not write the unit itself.

Endpoint output: AUC(0-t) of `CC(C)Cc1ccc([C@H](CF)C(=O)O)cc1` . Value?
50200

Continue with the next molecule.
Endpoint output: AUC(0-t) of CC(C)Cc1ccc([C@H](C)C(=O)O)cc1 [DEXIBUPROFEN] . Value?
81100

###

experiment: Plasma concentration in ICR mouse at 10 mg/kg, po after 1 hr by HPLC/MS/MS analysis; format: ADME, organism-based; design: dose 10 mg/kg, route oral
test readout: concentration at 1 h (ng/mL)
Please reply with the bare figure in ng/mL and do not write the unit itself.

Endpoint output: concentration at 1 h of `CC(C)Cc1ccc([C@H](C)C(=O)O)cc1` . Value?
24000

Further cases:
Endpoint output: concentration at 1 h of `CC(C)Cc1ccc([C@H](CF)C(=O)O)cc1` . Value?
20900

###

assay: Plasma concentration in ICR mouse at 10 mg/kg, po after 0.5 hrs by HPLC/MS/MS analysis; assay type: ADME, organism-based; set-up: dose 10 mg/kg, route oral
test readout: concentration at 0.5 h (ng/mL)
Please reply with the bare figure in ng/mL and do not write the unit itself.

Endpoint output: concentration at 0.5 h of CC(C)Cc1ccc([C@H](C)C(=O)O)cc1 [DEXIBUPROFEN] . Value?
34400

Further cases:
Endpoint output: concentration at 0.5 h of `CC(C)Cc1ccc([C@H](CF)C(=O)O)cc1` . Value?
28500

###

assay: Apparent volume of distribution in ICR mouse at 5 mg/kg, iv; assay type: ADME, organism-based; parameters: dose 5 mg/kg, route intravenous; conditions: in vivo, read-out: Vz
test readout: Vd
Respond with the figure and its unit, in that order.

Endpoint output: Vd of `CC(C)Cc1ccc([C@H](CF)C(=O)O)cc1` . Value?
0.27 L/kg

###

assay: Cmax in ICR mouse at 5 mg/kg, iv; assay type: ADME, organism-based; design: dose 5 mg/kg, route intravenous; conditions: in vivo
Entries annotated with measured Cmax
Please reply with the bare figure in ng/mL and do not write the unit itself.

Endpoint output: Cmax of `CC(C)Cc1ccc([C@H](CF)C(=O)O)cc1` . Value?
31600

Continue with the next molecule.
Endpoint output: Cmax of `CC(C)Cc1ccc([C@H](C)C(=O)O)cc1` . Value?
34600

###

test: Oral bioavailability ICR mouse at 10 mg/kg; assay type: ADME, organism-based; conditions: in vivo
test readout: bioavailability (%)
Please reply with the bare figure in % and do not write the unit itself.

Endpoint output: bioavailability of `CC(C)Cc1ccc([C@H](CF)C(=O)O)cc1` . Value?
108

Further cases:
Endpoint output: bioavailability of `CC(C)Cc1ccc([C@H](C)C(=O)O)cc1` . Value?
118

###

experiment: Plasma concentration in ICR mouse at 10 mg/kg, po after 6 hrs by HPLC/MS/MS analysis; assay type: ADME, organism-based; design: dose 10 mg/kg, route oral
Entries annotated with measured concentration at 6 h
Please reply with the bare figure in ng/mL and do not write the unit itself.

Endpoint output: concentration at 6 h of `CC(C)Cc1ccc([C@H](CF)C(=O)O)cc1` . Value?
102

Continue with the next compound.
Endpoint output: concentration at 6 h of `CC(C)Cc1ccc([C@H](C)C(=O)O)cc1` . Value?
1070

###

assay: Drug level in ICR mouse brain at 10 mg/kg, po after 6 hrs by HPLC/MS/MS analysis; format: ADME, organism-based; design: dose 10 mg/kg, route oral; details: read-out: Drug uptake
test readout: concentration at 6 h

Endpoint output: concentration at 6 h of `CC(C)Cc1ccc([C@H](C)C(=O)O)cc1` . Value?
43.1 ng/g

###

test: Mean residence time (0 to infinity) in ICR mouse at 10 mg/kg, po; type: ADME, organism-based; parameters: dose 10 mg/kg, route oral; details: in vivo
Entries annotated with measured MRT inf
Please reply with the bare figure in h and do not write the unit itself.

Endpoint output: MRT inf of `CC(C)Cc1ccc([C@H](C)C(=O)O)cc1` . Value?
1.68

Continue with the next molecule.
Endpoint output: MRT inf of `CC(C)Cc1ccc([C@H](CF)C(=O)O)cc1` . Value?
0.95

###

Entries annotated with measured Cmax
assay: Cmax in ICR mouse at 10 mg/kg, po; format: ADME, organism-based; parameters: dose 10 mg/kg, route oral; conditions: in vivo
Please reply with the bare figure in ng/mL and do not write the unit itself.

Endpoint output: Cmax of `CC(C)Cc1ccc([C@H](CF)C(=O)O)cc1` . Value?
42100

Continue with the next compound.
Endpoint output: Cmax of CC(C)Cc1ccc([C@H](C)C(=O)O)cc1 [DEXIBUPROFEN] . Value?
52100

###

Entries annotated with measured concentration at 1 h
experiment: Plasma concentration in ICR mouse at 5 mg/kg, iv after 1 hr by HPLC/MS/MS analysis; format: ADME, organism-based; set-up: dose 5 mg/kg, route intravenous
Please reply with the bare figure in ng/mL and do not write the unit itself.

Endpoint output: concentration at 1 h of `CC(C)Cc1ccc([C@H](C)C(=O)O)cc1` . Value?
9960

Continue with the next compound.
Endpoint output: concentration at 1 h of `CC(C)Cc1ccc([C@H](CF)C(=O)O)cc1` . Value?
6160

###

experiment: Plasma concentration in ICR mouse at 5 mg/kg, iv after 0.25 hrs by HPLC/MS/MS analysis; format: ADME, organism-based; design: dose 5 mg/kg, route intravenous
test readout: concentration at 0.25 h
Respond with the figure and its unit, in that order.

Endpoint output: concentration at 0.25 h of CC(C)Cc1ccc([C@H](C)C(=O)O)cc1 [DEXIBUPROFEN] . Value?
19400 ng/mL

Continue with the next compound.
Endpoint output: concentration at 0.25 h of `CC(C)Cc1ccc([C@H](CF)C(=O)O)cc1` . Value?
18000 ng/mL

###

experiment: Drug level in ICR mouse brain at 5 mg/kg, iv after 0.083 hrs by HPLC/MS/MS analysis; format: ADME, organism-based; set-up: dose 5 mg/kg, route intravenous; conditions: read-out: Drug uptake
test readout: concentration at 0.083 h (ng/g)
Please reply with the bare figure in ng/g and do not write the unit itself.

Endpoint output: concentration at 0.083 h of `CC(C)Cc1ccc([C@H](CF)C(=O)O)cc1` . Value?
982

Continue with the next compound.
Endpoint output: concentration at 0.083 h of CC(C)Cc1ccc([C@H](C)C(=O)O)cc1 [DEXIBUPROFEN] . Value?
1260

###

Entries annotated with measured concentration at 0.5 h
experiment: Plasma concentration in ICR mouse at 5 mg/kg, iv after 0.5 hrs by HPLC/MS/MS analysis; assay type: ADME, organism-based; parameters: dose 5 mg/kg, route intravenous
Please reply with the bare figure in ng/mL and do not write the unit itself.

Endpoint output: concentration at 0.5 h of CC(C)Cc1ccc([C@H](C)C(=O)O)cc1 [DEXIBUPROFEN] . Value?
19800

Further cases:
Endpoint output: concentration at 0.5 h of `CC(C)Cc1ccc([C@H](CF)C(=O)O)cc1` . Value?
13700

###

assay: Apparent half life in ICR mouse at 10 mg/kg, po; type: ADME, organism-based; set-up: dose 10 mg/kg, route oral; settings: in vivo, read-out: t1/2(app) (converted)
test readout: half-life (min)
Please reply with the bare figure in min and do not write the unit itself.

Endpoint output: half-life of `CC(C)Cc1ccc([C@H](CF)C(=O)O)cc1` . Value?
45
